Target: α7-GlyR Q79G (Homo sapiens, UniProt P36544, Q79G)
Construct: expressed in transfected cells; host or cells: HEK 293 cells
Sequence (P36544 with tags, fused parts or gaps Q79G): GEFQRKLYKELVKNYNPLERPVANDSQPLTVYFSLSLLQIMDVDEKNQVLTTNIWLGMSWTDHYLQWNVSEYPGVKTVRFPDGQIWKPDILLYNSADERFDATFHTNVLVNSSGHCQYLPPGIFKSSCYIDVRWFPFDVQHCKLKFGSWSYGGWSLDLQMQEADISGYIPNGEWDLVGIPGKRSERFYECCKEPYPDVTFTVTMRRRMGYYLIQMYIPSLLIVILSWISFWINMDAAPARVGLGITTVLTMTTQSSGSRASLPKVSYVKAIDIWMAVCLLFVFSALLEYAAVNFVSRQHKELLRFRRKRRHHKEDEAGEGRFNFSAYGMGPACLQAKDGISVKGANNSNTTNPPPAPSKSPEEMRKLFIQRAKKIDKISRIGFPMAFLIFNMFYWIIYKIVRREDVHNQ
Assay: whole cell voltage clamp recordings (Iss, Ipeak)
Type: cell-based
Settings: steady state current, IPD GlyR, read-out: EC50-Iss
Assay Endpoint: EC50 (µM)
Numbers only, in µM.

Summary for this molecule, O=C(N[C@@H]1CN2CCC1CC2)c1ccc(C(F)(F)F)cc1 [Compound 22S] : EC50 is 4.8

---

Target: α7-GlyR L141F Y115F (Homo sapiens, UniProt P36544, L141F/Y115F)
Construct: expressed in transfected cells; layer 2/3 cortical neurons (A20)
Sequence (P36544 with tags, fused parts or gaps Y115F/L141F): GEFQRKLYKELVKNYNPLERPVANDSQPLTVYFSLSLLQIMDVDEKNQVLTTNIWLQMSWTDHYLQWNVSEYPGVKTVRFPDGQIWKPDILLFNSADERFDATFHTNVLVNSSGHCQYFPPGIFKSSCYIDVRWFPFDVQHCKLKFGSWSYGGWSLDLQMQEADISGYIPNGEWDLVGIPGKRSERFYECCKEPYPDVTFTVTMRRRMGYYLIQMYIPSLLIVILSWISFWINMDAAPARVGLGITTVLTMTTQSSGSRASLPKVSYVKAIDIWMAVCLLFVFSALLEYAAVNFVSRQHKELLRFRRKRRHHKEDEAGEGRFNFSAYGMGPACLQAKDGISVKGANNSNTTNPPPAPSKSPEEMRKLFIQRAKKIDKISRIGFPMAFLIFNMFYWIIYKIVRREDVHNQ
Assay: whole cell voltage clamp recordings (Iss, Ipeak)
Assay type: cell-based
Settings: EC50-Iss, steady state current, IPD GlyR
Assay Endpoint: EC50 (µM)
Answers are plain numbers, in µM.

Summary for this molecule, COc1ccc(OC)c(C(=O)N[C@@H]2CN3CCC2CC3)c1 [Compound 89S] : EC50 is 5.2

---

Target: α7-5HT3 Q79G L141S (Homo sapiens, UniProt P36544, L141S/M226I/Q79G/T225I)
Construct: expressed in transfected cells
Sequence (P36544 with tags, fused parts or gaps Q79G/L141S/T225I/M226I): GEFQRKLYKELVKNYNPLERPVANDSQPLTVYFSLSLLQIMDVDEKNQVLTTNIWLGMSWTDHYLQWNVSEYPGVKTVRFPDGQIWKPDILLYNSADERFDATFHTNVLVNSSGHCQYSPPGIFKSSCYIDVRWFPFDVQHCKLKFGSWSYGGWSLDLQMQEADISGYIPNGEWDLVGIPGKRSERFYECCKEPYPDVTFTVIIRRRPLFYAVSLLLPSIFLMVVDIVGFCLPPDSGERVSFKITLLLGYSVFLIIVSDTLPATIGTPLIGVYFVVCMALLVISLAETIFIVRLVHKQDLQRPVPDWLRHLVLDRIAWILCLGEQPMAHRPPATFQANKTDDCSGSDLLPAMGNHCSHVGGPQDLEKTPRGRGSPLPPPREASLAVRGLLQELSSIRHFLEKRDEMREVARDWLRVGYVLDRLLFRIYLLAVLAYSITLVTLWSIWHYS
Assay: whole cell voltage clamp recordings (Iss, Ipeak)
Type: cell-based, human/mouse
Settings: steady state current; α7 Q79G L141S, IPD 5HT3; read-out: EC50-Iss
Assay Endpoint: pEC50
One number for each entry, as −log10 of the molar value.

Summary for this compound, "CCCCc1ccc(C(=O)N[C@@H]2CN3CCC2CC3)cc1" : pEC50 is 5.40

---

Target: α7-GlyR Q79G (Homo sapiens, UniProt P36544, Q79G)
Construct: expressed in transfected cells; host or cells: HEK 293 cells
Test: whole cell voltage clamp recordings (Iss, Ipeak)
Format: cell-based
Settings: peak current, IPD GlyR, read-out: EC50-Ipeak
Assay Endpoint: pEC50
One number for each entry, as −log10 of the molar value.

Summary for this compound, O=C(N[C@@H]1CN2CCC1CC2)c1ccc(C(F)(F)F)cc1 [Compound 22S] : pEC50 is 5.12

---

Target: α7-5HT3 Q79G L141S (Homo sapiens, UniProt P36544, L141S/M226I/Q79G/T225I)
Construct: expressed in transfected cells
Assay: fluorescence membrane potential (MP) assay, HEK 293 cells
Type: cell-based, human/mouse
Conditions: IPD 5HT3, value (s.e.m.)
Assay Endpoint: EC50 (µM)
Numbers only, in µM.

Summary for this molecule, CCCCc1ccc(C(=O)N[C@@H]2CN3CCC2CC3)cc1 [Compound 9S] : EC50 is 4.1

---

Target: α7-5HT3 wt chimeric receptor (Homo sapiens, UniProt P36544, M226I/T225I)
Construct: expressed in transfected cells; host or cells: HEK 293 cells
Sequence (P36544 with tags, fused parts or gaps T225I/M226I): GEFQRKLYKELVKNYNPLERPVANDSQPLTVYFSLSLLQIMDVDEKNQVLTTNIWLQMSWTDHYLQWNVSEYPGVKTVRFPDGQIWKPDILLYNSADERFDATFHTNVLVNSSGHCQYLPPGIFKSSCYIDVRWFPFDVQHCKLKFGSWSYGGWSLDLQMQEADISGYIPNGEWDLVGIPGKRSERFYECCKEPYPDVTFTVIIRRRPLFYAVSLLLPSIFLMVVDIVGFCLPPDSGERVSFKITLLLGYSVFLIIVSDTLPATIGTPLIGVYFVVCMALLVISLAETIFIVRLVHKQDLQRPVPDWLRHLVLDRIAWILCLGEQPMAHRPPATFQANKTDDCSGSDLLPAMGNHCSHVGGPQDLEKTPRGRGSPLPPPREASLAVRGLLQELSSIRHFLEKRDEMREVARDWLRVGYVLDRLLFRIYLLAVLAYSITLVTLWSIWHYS
Test: fluorescence membrane potential (MP) assay, HEK 293 cells
Format: cell-based, human/mouse
Settings: dose response curves, MP assay
Where a name gives a salt, the structure may show the parent alone.
Assay Endpoint: activity against α7-5HT3 wt (unmodified) receptor

// below: answered molecules
{"Molecule": "COc1ccc(C(=O)N[C@@H]2CN3CCC2CC3)c(OC)c1 [Compound 88S]", "Result": "no activity"}
{"Molecule": "COc1ccccc1C(=O)N[C@@H]1CN2CCC1CC2 [Compound 19S]", "Result": "did not induce activate"}
{"Molecule": "O=C(N[C@@H]1CN2CCC1CC2)c1ccc(-c2ccccc2)cc1 [Compound 28S, TFA]", "Result": "did not induce activate"}
{"Molecule": "O=C(N[C@@H]1CN2CCC1CC2)c1ccc(-c2cccs2)cc1 [Compound 34S]", "Result": "did not induce activate"}
{"Molecule": "COc1ccc(OC)c(C(=O)N[C@@H]2CN3CCC2CC3)c1 [Compound 89S]", "Result": "no activity"}

Quick request: activity against α7-5HT3 wt (unmodified) receptor for each listed item, please.
1. O=C(N[C@@H]1CN2CCC1CC2)c1ccc(C(F)(F)F)cc1 [Compound 22S]
2. CCCCc1ccc(C(=O)N[C@@H]2CN3CCC2CC3)cc1

Reply:
1. did not induce activate
2. did not induce activate

Cited source: patent US8435762B2
